# Kd listing for each entry below
target.or.system: T1, EsCas13d, nuclease-dead (Eubacterium siraeum, UniProt B0MS50, R295A;H300A;R849A;H854A)
T1 sequence: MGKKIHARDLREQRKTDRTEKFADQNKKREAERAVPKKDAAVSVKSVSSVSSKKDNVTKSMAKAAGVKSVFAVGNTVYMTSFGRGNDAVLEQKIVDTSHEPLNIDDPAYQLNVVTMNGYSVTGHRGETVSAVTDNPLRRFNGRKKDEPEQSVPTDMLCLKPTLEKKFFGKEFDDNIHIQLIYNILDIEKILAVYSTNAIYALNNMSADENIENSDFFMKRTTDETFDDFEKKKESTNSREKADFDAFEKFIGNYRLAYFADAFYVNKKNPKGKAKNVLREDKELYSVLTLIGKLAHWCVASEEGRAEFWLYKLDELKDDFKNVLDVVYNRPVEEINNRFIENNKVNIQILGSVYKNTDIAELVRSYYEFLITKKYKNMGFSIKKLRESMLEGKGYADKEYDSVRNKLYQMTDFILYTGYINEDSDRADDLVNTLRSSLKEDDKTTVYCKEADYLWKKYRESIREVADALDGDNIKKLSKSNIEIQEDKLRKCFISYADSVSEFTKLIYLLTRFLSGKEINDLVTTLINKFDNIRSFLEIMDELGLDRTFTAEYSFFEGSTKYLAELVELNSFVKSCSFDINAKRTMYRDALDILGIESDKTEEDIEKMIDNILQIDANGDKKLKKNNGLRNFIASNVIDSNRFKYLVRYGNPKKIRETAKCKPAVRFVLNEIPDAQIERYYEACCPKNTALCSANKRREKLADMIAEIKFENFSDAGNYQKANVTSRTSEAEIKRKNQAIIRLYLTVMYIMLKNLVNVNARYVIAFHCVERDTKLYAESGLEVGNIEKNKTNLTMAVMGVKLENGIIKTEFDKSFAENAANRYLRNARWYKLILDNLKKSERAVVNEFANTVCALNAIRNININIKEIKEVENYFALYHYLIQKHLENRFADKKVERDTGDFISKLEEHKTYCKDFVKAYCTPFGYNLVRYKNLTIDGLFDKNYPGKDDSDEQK
method.description: crRNA (strand 1, pre-loaded); Mg2+; 40 mM Tris-HCl pH 7.5, 150 mM NaCl, 6 mM MgCl2, 1 mM DTT, 0.1% Tween-20, 0.2 mg/ml BSA; 25 C; 10 min per concentration, then washed
experimental.setup: tags: His6-TwinStrep-SUMO cleaved; N-terminal SNAP kept (SNAP-Surface 488); label: 3' end held by stalled T7 RNA polymerase
endpoint.name: Kd (nM)

1) target 3 insA 3' of 21,insU 3' of 3 (mixed) RNA 1: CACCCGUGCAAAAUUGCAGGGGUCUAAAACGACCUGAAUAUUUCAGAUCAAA RNA 2: GGGAAUGGAUCCACAUCUACGAAUUCGUUUUAUGAUCUGAAAUAUUCAGGUUCUGCAGAUCGGAAGAGCACACGU	46.3
2) target 2 MT 5'PFS GCU 3'PFS UCG (mixed) RNA 1: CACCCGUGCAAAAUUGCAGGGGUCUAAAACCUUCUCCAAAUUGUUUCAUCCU RNA 2: GGGAAUGGAUCCACAUCUACGAAUUCGCUAGGAUGAAACAAUUUGGAGAAGUCGAGAUCGGAAGAGCACACGU	18
3) target 1 insA 3' of 10,insG 3' of 3 (mixed) RNA 1: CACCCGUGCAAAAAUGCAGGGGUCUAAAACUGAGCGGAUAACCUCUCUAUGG RNA 2: GGGAAUGGAUCCACAUCUACGAAUUCGUACCAUAGAGAGGUUAAUCCGCUGCACCGAGAUCGGAAGAGCACACGU	7.18
4) target 1 C2U,G5U (mixed) RNA 1: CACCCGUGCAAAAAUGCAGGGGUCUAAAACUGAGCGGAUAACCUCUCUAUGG RNA 2: GGGAAUGGAUCCACAUCUACGAAUUCGUACCAUAGAGAGGUUAUCCUCUUACCGAGAUCGGAAGAGCACACGU	23.2
5) target 1 insC 3' of 12,insC 3' of 1 (mixed) RNA 1: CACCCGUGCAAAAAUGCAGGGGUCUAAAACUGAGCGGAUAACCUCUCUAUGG RNA 2: GGGAAUGGAUCCACAUCUACGAAUUCGUACCAUAGAGAGGCUUAUCCGCUCACCCGAGAUCGGAAGAGCACACGU	7.7
6) target 3 G3C,A11G (mixed) RNA 1: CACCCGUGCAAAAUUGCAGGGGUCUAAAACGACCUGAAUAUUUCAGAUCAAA RNA 2: GGGAAUGGAUCCACAUCUACGAAUUCGUUUUUGAUCUGAAGUAUUCAGCUCUGCAGAUCGGAAGAGCACACGU	61
7) target 2 MT 5'PFS GAU 3'PFS UGC (mixed) RNA 1: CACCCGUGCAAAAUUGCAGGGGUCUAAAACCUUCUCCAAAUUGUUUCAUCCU RNA 2: GGGAAUGGAUCCACAUCUACGAAUUCGAUAGGAUGAAACAAUUUGGAGAAGUGCAGAUCGGAAGAGCACACGU	14.9
8) target 2 MT 5'PFS GUG 3'PFS CAC (mixed) RNA 1: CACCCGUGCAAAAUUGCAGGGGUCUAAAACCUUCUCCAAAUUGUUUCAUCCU RNA 2: GGGAAUGGAUCCACAUCUACGAAUUCGUGAGGAUGAAACAAUUUGGAGAAGCACAGAUCGGAAGAGCACACGU	10.6
